Values compiled from ChEMBL document CHEMBL1131686.

Assay: Lethal dose after intravenous administration (5 times/week for 2 weeks after tumor grew to 0.2 cme3 or larger) in mice
Type: toxicity
Settings: mouse, in vivo, 336 h
Listing of entries alongside the reported LD10.

Example compounds with recorded LD10:
[
  {
    "Compound": "N#CCCNN1C(=O)c2c(c3c4cccc(O)c4n(C4OC(CO)C(O)C(O)C4O)c3c3[nH]c4c(O)cccc4c23)C1=O (configuration not stated)",
    "LD10": "640 mg/me2"
  },
  {
    "Compound": "O=C1c2c(c3c4cccc(O)c4n(C4OC(CO)C(O)C(O)C4O)c3c3[nH]c4c(O)cccc4c23)C(=O)N1NC(CO)CO (configuration not stated)",
    "LD10": "390 mg/me2"
  },
  {
    "Compound": "O=C1c2c(c3c4cccc(O)c4n(C4OC(CO)C(O)C(O)C4O)c3c3[nH]c4c(O)cccc4c23)C(=O)N1NCC(O)CO (configuration not stated)",
    "LD10": "330 mg/me2"
  },
  {
    "Compound": "CCNN1C(=O)c2c(c3c4cccc(O)c4n(C4OC(CO)C(O)C(O)C4O)c3c3[nH]c4c(O)cccc4c23)C1=O (configuration not stated)",
    "LD10": "> 1500 mg/me2"
  },
  {
    "Compound": "O=CNN1C(=O)c2c(c3c4cccc(O)c4n(C4OC(CO)C(O)C(O)C4O)c3c3[nH]c4c(O)cccc4c23)C1=O (configuration not stated)",
    "LD10": "1600 mg/me2"
  }
]

Look up LD10: O=C1c2c(c3c4cccc(O)c4n(C4OC(CO)C(O)C(O)C4O)c3c3[nH]c4c(O)cccc4c23)C(=O)N1NCCO (configuration not stated)
560 mg/me2

Look up LD10: O=C(CO)NN1C(=O)c2c(c3c4cccc(O)c4n(C4OC(CO)C(O)C(O)C4O)c3c3[nH]c4c(O)cccc4c23)C1=O (configuration not stated)
> 1500 mg/me2

* * *

Assay: Ratio of LD10 to that of GID75 was determined; expressed as safety margin
Format: functional
Listing of entries alongside the reported Activity.

Example compounds with recorded Activity:
[
  {
    "Compound": "O=CNN1C(=O)c2c(c3c4cccc(O)c4n(C4OC(CO)C(O)C(O)C4O)c3c3[nH]c4c(O)cccc4c23)C1=O (stereo unspecified)",
    "Activity": "1.4 Ratio"
  },
  {
    "Compound": "O=C1c2c(c3c4cccc(O)c4n(C4OC(CO)C(O)C(O)C4O)c3c3[nH]c4c(O)cccc4c23)C(=O)N1NC(CO)CO (stereo unspecified)",
    "Activity": "5 Ratio"
  },
  {
    "Compound": "O=C1c2c(c3c4cccc(O)c4n(C4OC(CO)C(O)C(O)C4O)c3c3[nH]c4c(O)cccc4c23)C(=O)N1NCC(O)CO (stereo unspecified)",
    "Activity": "1.1 Ratio"
  },
  {
    "Compound": "N#CCCNN1C(=O)c2c(c3c4cccc(O)c4n(C4OC(CO)C(O)C(O)C4O)c3c3[nH]c4c(O)cccc4c23)C1=O (stereo unspecified)",
    "Activity": "3.2 Ratio"
  },
  {
    "Compound": "O=C1c2c(c3c4cccc(O)c4n(C4OC(CO)C(O)C(O)C4O)c3c3[nH]c4c(O)cccc4c23)C(=O)N1NCCO (stereo unspecified)",
    "Activity": "2.1 Ratio"
  }
]

Please find the next compound below.
Look up Activity: O=C(CO)NN1C(=O)c2c(c3c4cccc(O)c4n(C4OC(CO)C(O)C(O)C4O)c3c3[nH]c4c(O)cccc4c23)C1=O (stereo unspecified)
> 1.3 Ratio
